- System: L1210 leukemia ip in BDF1 mice, survival T/C
- EXPERIMENTAL PROTOCOL: NCI In Vivo Anticancer Drug Screen. Data for tumor model L1210 Leukemia (intraperitoneal) in B6D2F1 (BDF1) mice
- CONDITION NOTES: endpoint: mean survival time; dose: 100.0 mg/kg/injection; schedule: Q04DX003 (ip); vehicle: saline with Tween-80; higher = longer survival
Toxic doses and inconclusive results are not listed.
MEASURED ENDPOINT: T/C

{"COMPOUND": "Nc1ccc2[nH]ncc2c1", "READOUT VALUE": "102 % of control"}
{"COMPOUND": "Cc1ccc(NC(=O)COc2ccc(Cl)cc2Cl)c(C)c1", "READOUT VALUE": "89 % of control"}
{"COMPOUND": "c1ccc(-c2oc3cc4c(cc3c2-c2ccc(OCCN3CCCC3)cc2)CCC4)cc1", "READOUT VALUE": "90 % of control"}
{"COMPOUND": "O=Cc1sc2cc[nH]c2c1O", "READOUT VALUE": "100 % of control"}
{"COMPOUND": "CCOC(=O)c1cnn2c(SC)ncnc12", "READOUT VALUE": "107 % of control"}
{"COMPOUND": "CCCCOC(c1ccc2c(c1)OCO2)C(C)Br (configuration not stated)", "READOUT VALUE": "94 % of control"}
{"COMPOUND": "O=C1OC2(c3ccccc31)c1ccccc1-c1ccccc12", "READOUT VALUE": "97 % of control"}
{"COMPOUND": "COc1ccc(NC(=O)Oc2ccc(Cl)c(C)c2)cc1", "READOUT VALUE": "93 % of control"}
{"COMPOUND": "Cc1ccc(CO)cc1C", "READOUT VALUE": "104 % of control"}
{"COMPOUND": "CN(C)CCCCCO", "READOUT VALUE": "97 % of control"}
{"COMPOUND": "NC(N)=NCCCOc1ccc([N+](=O)[O-])cc1", "READOUT VALUE": "101 % of control"}
{"COMPOUND": "Clc1ccccc1OCC1CO1 (configuration not stated)", "READOUT VALUE": "98 % of control"}
{"COMPOUND": "NNC(=O)C1C2C=CC(C2)C1C(=O)NN (configuration not stated)", "READOUT VALUE": "103 % of control"}
{"COMPOUND": "CC(C)(O)c1ccccc1", "READOUT VALUE": "93 % of control"}
{"COMPOUND": "CC(=O)Nc1ccc(/C=C/c2ccc3ccccc3[n+]2C)cc1", "READOUT VALUE": "94 % of control"}
{"COMPOUND": "NC(=O)CC(NC(=O)OCc1ccccc1)c1nn[nH]n1 (configuration not stated)", "READOUT VALUE": "91 % of control"}
{"COMPOUND": "CCSC(=O)N1c2ccc(C)cc2C=CC1C#N (configuration not stated)", "READOUT VALUE": "90 % of control"}
{"COMPOUND": "CC(=O)N[C@H]1CC[C@H]2[C@@H]3CCC4=CC(=O)CC[C@]4(C)[C@H]3CC[C@]12C", "READOUT VALUE": "86 % of control"}
{"COMPOUND": "OC(C(c1ccccc1)c1ccccn1)(C(F)(F)F)C(F)(F)F (configuration not stated)", "READOUT VALUE": "94 % of control"}
{"COMPOUND": "Cn1c2nc3ccccc3c-2nc2ccccc21", "READOUT VALUE": "91 % of control"}
{"COMPOUND": "COc1cc2c(cc1OC)C13CCN4CC5=CCOC6CCN2C1C6C5CC43 (configuration not stated)", "READOUT VALUE": "86 % of control"}
{"COMPOUND": "NNC(=S)NC1CCCCC1", "READOUT VALUE": "96 % of control"}
{"COMPOUND": "O=Cc1ccc(OC(=O)Nc2ccccc2)cc1", "READOUT VALUE": "105 % of control"}
{"COMPOUND": "Cc1ccc(S(=O)(=O)OCCOCCOS(=O)(=O)c2ccc(C)cc2)cc1", "READOUT VALUE": "100 % of control"}
{"COMPOUND": "NC(=O)C1C2C=CC(C2)C1C(N)=O (configuration not stated)", "READOUT VALUE": "96 % of control"}
{"COMPOUND": "NCNc1nc(NCN)nc(N(CN)CN)n1", "READOUT VALUE": "92 % of control"}
{"COMPOUND": "OC(CCCCC(O)(c1ccccc1)c1ccccc1)(c1ccccc1)c1ccccc1", "READOUT VALUE": "89 % of control"}

From: PubChem BioAssay AID248
